targetEntity: UniProtKB P18031
Sequence (P18031 whole entry): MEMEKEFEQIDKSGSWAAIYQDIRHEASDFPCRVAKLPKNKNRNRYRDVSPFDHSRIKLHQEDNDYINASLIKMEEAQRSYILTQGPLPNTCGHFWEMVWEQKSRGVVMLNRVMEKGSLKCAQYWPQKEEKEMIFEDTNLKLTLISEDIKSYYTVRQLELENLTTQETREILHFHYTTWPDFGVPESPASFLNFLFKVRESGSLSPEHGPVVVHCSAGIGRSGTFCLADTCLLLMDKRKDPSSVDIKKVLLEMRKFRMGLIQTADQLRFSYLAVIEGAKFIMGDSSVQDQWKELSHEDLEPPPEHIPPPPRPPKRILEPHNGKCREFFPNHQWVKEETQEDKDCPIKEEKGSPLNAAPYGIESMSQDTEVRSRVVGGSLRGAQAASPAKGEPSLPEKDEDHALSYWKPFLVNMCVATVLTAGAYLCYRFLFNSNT
pIC50: −log10 of the molar value.
reportedEndpoint: pIC50

// worked examples, pIC50 included
CC(C)CC(=O)c1c(O)c(C=O)c(O)c(C[C@@]2(C)CC[C@H]3C2=C[C@H](C(C)(C)O)CC[C@H]3C)c1O 5.37
CC(C)C[C@@H](c1c(O)c(C=O)c(O)c(C=O)c1O)[C@@]1(C)CC[C@@H]2[C@@H]1[C@H]1[C@@H](CC[C@]2(C)O)C1(C)C 5.25

A. CC(C)C[C@@H](c1c(O)c(C=O)c(O)c(C=O)c1O)[C@H]1CC[C@@H](C)[C@@]2(C)C1=CC[C@@H]1[C@H]2C1(C)C
B. CC(C)C[C@@H](c1c(O)c(C=O)c(O)c(C=O)c1O)[C@@]1(C)CCC2=C1[C@H]1[C@@H](CC[C@H]2C)C1(C)C
Ask | Select one. Lower pIC50: A or B Refer to your chosen entry by its label in the reply.
Reply | A
